System: KM12 colon
Assay: NCI-60 one-dose screen, 48 h (100 = growth as untreated, 0 = no growth, -100 = all killed)
Conditions: 10 µM unless noted
Method: Growth inhibition of the KM12 human tumor cell line is measured as a screen for anti-cancer activity. Cells are grown in 96 well plates and exposed to the test compound for 48 hours. Compounds are tested at a single concentration, which is 10^-5 M for most compounds. The reported endpoint is percent growth (GI% or GIPRCNT), where numbers from 0 - 100% represent growth inhibition, and numbers from -100% - 0 represent cell death. For example, a value of 40 represents 60% growth inhibition. […]
This is part of a sample that, as a whole, favours compounds with a hit. Of some 83,000 tested, about 20% had one in any assay.
List of growth values.
readoutType: growth (%)

compoundString	readoutType	number
Cc1nc2c(c(-c3ccccc3)n1)Cc1c(ccc3ccccc13)O2	growth	89.1
CCOC(=O)/C=C1\S/C(=N\Nc2cc(=O)[nH]c3ccc(OC)cc23)N(c2ccccc2)C1=O	growth	91.8
COc1cc(OC)cc(C(=O)Nc2cnc(Nc3ccc(N4CCOCC4)nc3)nc2Oc2ccc(C(F)(F)F)cc2)c1	growth	88
